Ref: ChEMBL document CHEMBL1142695

- TARGET_OR_SYSTEM: GABA-A receptor; alpha-2/beta-3/gamma-2 (Homo sapiens, UniProt P18507+P28472+P47869)
- PROCEDURE_DETAILS: Inhibition of [3H]Ro-151788 binding to recombinant human gamma-aminobutyric acid A receptor alpha-2-beta-3-gamma-2 subtype expressed in L (tk-) cells
Decision: Ki beneath 70 nM gives yes; Ki meeting or exceeding 70 nM gives no.

{"COMPOUND": "OCCCCOc1nn2c(-c3ccccc3)nnc2c2c1C1CCC2CC1", "TARGET_OR_SYSTEM": "GABA-A receptor; alpha-2/beta-3/gamma-2 (Homo sapiens, UniProt P18507+P28472+P47869)", "ASSIGNED_LABEL": "yes"}
{"COMPOUND": "c1ccc(COc2nn3c(-c4ccncc4)nnc3c3c2C2CCC3CC2)nc1", "TARGET_OR_SYSTEM": "GABA-A receptor; alpha-2/beta-3/gamma-2 (Homo sapiens, UniProt P18507+P28472+P47869)", "ASSIGNED_LABEL": "no"}
{"COMPOUND": "OCC1CCC(COc2nn3c(-c4ccccc4)nnc3c3c2C2CCC3CC2)CC1 (trans isomer)", "TARGET_OR_SYSTEM": "GABA-A receptor; alpha-2/beta-3/gamma-2 (Homo sapiens, UniProt P18507+P28472+P47869)", "ASSIGNED_LABEL": "no"}

Here's an entry: `CSOc1ccc(COc2nn3c(-c4ccccc4)nnc3c3c2C2CCC3CC2)cc1` . Is its Ki below 70 nM? yes

Here's an entry: `COC(=O)c1cccnc1COc1nn2c(-c3ccccc3)nnc2c2c1C1CCC2CC1` . Is its Ki below 70 nM? yes

Here's an entry: `CCOc1cccnc1COc1nn2c(-c3ccccc3)nnc2c2c1C1CCC2CC1` . Is its Ki below 70 nM? yes

Here's an entry: `COc1cccc(-c2nnc3c4c(c(OCc5ccccn5)nn23)C2CCC4CC2)c1` . Is its Ki below 70 nM? no

Here's an entry: OCC1CCC(COc2nn3c(-c4ccccc4)nnc3c3c2C2CCC3CC2)CC1 (stereo in doubt) . Is its Ki below 70 nM? no

Here's an entry: `Cc1nc(COc2nn3c(-c4ccccc4)nnc3c3c2C2CCC3CC2)no1` . Is its Ki below 70 nM? no

Here's an entry: `Cc1ccnc(COc2nn3c(-c4ccccc4)nnc3c3c2C2CCC3CC2)c1C` . Is its Ki below 70 nM? yes

Here's an entry: `CN(C)Cc1cccc(COc2nn3c(-c4ccccc4)nnc3c3c2C2CCC3CC2)c1` . Is its Ki below 70 nM? yes

----------
- TARGET_OR_SYSTEM: GABA-A receptor; alpha-2/beta-3/gamma-2 (Homo sapiens, UniProt P18507+P28472+P47869)
- Sequence (P18507 whole entry): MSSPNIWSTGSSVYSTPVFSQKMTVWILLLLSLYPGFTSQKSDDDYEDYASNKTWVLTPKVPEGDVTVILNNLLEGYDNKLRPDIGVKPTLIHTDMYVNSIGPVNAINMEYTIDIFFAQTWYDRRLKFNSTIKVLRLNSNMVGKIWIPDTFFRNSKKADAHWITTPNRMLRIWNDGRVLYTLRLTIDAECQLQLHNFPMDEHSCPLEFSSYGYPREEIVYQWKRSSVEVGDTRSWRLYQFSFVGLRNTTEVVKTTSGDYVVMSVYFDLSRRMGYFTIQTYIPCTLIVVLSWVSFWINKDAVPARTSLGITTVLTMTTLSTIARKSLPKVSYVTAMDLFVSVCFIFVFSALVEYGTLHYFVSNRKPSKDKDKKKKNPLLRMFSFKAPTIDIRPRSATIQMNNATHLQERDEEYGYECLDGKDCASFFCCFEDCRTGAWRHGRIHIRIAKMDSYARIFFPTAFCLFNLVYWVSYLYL
- Sequence (P28472 whole entry): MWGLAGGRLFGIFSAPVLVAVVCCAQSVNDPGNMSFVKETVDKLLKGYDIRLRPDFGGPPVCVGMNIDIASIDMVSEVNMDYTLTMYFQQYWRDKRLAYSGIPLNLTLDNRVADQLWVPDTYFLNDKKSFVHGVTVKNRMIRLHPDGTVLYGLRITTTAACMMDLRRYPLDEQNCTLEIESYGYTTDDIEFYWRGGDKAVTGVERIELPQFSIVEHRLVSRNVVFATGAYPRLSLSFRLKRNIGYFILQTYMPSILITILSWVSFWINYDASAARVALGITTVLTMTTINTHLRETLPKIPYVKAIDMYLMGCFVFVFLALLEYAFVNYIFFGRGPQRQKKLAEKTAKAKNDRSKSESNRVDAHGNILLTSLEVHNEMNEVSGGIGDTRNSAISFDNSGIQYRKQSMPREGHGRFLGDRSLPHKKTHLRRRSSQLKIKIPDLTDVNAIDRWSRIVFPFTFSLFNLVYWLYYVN
- Sequence (P47869 whole entry): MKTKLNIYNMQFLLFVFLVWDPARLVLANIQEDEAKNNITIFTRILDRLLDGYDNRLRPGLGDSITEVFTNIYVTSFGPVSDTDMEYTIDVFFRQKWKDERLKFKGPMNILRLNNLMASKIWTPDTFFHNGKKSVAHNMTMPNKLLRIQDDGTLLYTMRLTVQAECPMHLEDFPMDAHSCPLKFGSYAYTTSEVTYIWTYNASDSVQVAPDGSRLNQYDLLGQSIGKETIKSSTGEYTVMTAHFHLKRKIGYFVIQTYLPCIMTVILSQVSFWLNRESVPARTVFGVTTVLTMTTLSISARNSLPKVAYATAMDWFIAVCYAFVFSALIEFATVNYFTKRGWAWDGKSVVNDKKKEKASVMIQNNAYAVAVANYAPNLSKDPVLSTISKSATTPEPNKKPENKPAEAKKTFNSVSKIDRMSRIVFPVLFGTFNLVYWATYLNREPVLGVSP
- PROCEDURE_DETAILS: Inhibition of [3H]Ro-151788 binding to recombinant human gamma-aminobutyric acid A receptor alpha-2-beta-3-gamma-2 subtype expressed in L (tk-) cells
ASSAY_READOUT: Ki (nM)
Give your result in nM as a bare value.

{"SUBSTANCE_SMILES": "Cc1cccnc1COc1nn2c(-c3ccccc3)nnc2c2c1C1CCC2CC1", "ASSAY_READOUT": "Ki", "UNIT_STRING": "nM", "MEASURED": 2}

Switching to the query record.
Which Ki is listed for `c1ccc(-c2nnc3c4c(c(OCc5ccncc5)nn23)C2CCC4CC2)cc1` ? 82

----------
- TARGET_OR_SYSTEM: GABA-A receptor; alpha-1/beta-3/gamma-2 (Homo sapiens, UniProt P14867+P18507+P28472)
- Sequence (P14867 whole entry, one chain of several): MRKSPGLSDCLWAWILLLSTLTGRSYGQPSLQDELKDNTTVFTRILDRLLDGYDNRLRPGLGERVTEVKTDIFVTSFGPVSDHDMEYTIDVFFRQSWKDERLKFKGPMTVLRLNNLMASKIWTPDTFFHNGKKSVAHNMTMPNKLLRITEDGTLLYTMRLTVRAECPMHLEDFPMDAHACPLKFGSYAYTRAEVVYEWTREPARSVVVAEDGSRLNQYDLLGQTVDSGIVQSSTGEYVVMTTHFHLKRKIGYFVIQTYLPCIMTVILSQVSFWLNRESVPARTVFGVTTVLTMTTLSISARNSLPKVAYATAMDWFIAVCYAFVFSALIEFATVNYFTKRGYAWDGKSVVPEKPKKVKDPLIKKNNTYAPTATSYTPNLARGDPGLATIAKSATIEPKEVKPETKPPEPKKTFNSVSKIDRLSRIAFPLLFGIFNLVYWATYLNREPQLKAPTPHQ
- PROCEDURE_DETAILS: Inhibition of [3H]Ro-151788 binding to recombinant human gamma-aminobutyric-acid A receptor alpha-1-beta-3-gamma-2 subtype expressed in L (tk-) cells
pKi: −log10 of the molar value.
Assign True whenever pKi does not fall below 7; assign False whenever it does.

Below, 10 compounds whose answers are already recorded.
{"COMPOUND": "CN1CCCCC1COc1nn2c(-c3ccccc3)nnc2c2c1C1CCC2CC1 (stereo unspecified)", "ASSIGNED_LABEL": "False"}
{"COMPOUND": "c1ccc(-c2nnc3c4c(c(CNc5ccccn5)nn23)C2CCC4CC2)cc1", "ASSIGNED_LABEL": "False"}
{"COMPOUND": "c1ccc(-c2nnc3c4c(c(OCc5nnc[nH]5)nn23)C2CCC4CC2)cc1", "ASSIGNED_LABEL": "True"}
{"COMPOUND": "COCCOc1cccnc1COc1nn2c(-c3ccccc3)nnc2c2c1C1CCC2CC1", "ASSIGNED_LABEL": "True"}
{"COMPOUND": "CCCn1ncnc1COc1nn2c(-c3ccccc3)nnc2c2c1C1CCC2CC1", "ASSIGNED_LABEL": "True"}
{"COMPOUND": "CN(C)Cc1cccc(COc2nn3c(-c4ccccc4)nnc3c3c2C2CCC3CC2)c1", "ASSIGNED_LABEL": "False"}
{"COMPOUND": "N#Cc1ccccc1COc1nn2c(-c3ccccc3)nnc2c2c1C1CCC2CC1", "ASSIGNED_LABEL": "False"}
{"COMPOUND": "COc1cccnc1COc1nn2c(-c3ccccc3)nnc2c2c1C1CCC2CC1", "ASSIGNED_LABEL": "True"}
{"COMPOUND": "Cc1ccc(-c2nnc3c4c(c(OCc5ccccn5)nn23)C2CCC4CC2)cc1", "ASSIGNED_LABEL": "False"}
{"COMPOUND": "c1ccc(-c2nnc3c4c(c(OCc5nccc6ccccc56)nn23)C2CCC4CC2)cc1", "ASSIGNED_LABEL": "True"}

State whether the measured pKi reaches 7, counting equality as reaching it, for `Cc1cccc(-c2nnc3c4c(c(OCc5ccccn5)nn23)C2CCC4CC2)c1` False

State whether the measured pKi reaches 7, counting equality as reaching it, for `c1ccc(-c2nnc3c4c(c(OCc5cnccn5)nn23)C2CCC4CC2)cc1` True

State whether the measured pKi reaches 7, counting equality as reaching it, for `c1ccc(-c2nnc3c4c(c(OCc5ncccc5OCC5CC5)nn23)C2CCC4CC2)cc1` True

State whether the measured pKi reaches 7, counting equality as reaching it, for `O=C(COc1nn2c(-c3ccccc3)nnc2c2c1C1CCC2CC1)N1CCCC1` False

State whether the measured pKi reaches 7, counting equality as reaching it, for `CCOc1cccnc1COc1nn2c(-c3ccccc3)nnc2c2c1C1CCC2CC1` True
